Test system: Phytophthora infestans
Type: cell-based
condition details: Phytophthora infestans (second line); 1 mg/mL
Task for the reader: assign each of the following compounds its reported Average Diameter of the Colony.
Supply the numeric figure in cm, leaving out any unit text.

INPUT: Any idea what its Average Diameter of the Colony is? The compound is CCOC(=O)/C=C/c1ccc2c(c1)OCO2
OUTPUT: 0.00

INPUT: Query: Average Diameter of the Colony; subject: CCOC(=O)/C=C/c1ccc(OC)c(F)c1
OUTPUT: 0.00

INPUT: Fill in the blank: the reported Average Diameter of the Colony of CCOC(=O)/C=C/c1ccc(OC)c(OC)c1 is ____.
OUTPUT: 0.00

INPUT: Given the compound COC(=O)C=Cc1ccc(OC)c(OC)c1 [Control Compound A, methyl 3,4-dimethoxy cinnamate, reference compound] , what is its reported Average Diameter of the Colony?
OUTPUT: 0.27
